assay: in vitro; conditions: pig, simulated intestinal fluid
Starred links: 1 amine or outer side, 2 acyl side, 3 side chain; linkers in the order of their positions; H or OH if unused. Non-standard residues stand in square brackets, D forms with d. Residues, ends and D or L forms follow the SMILES beside them. X12 = C[C@@H](O)[C@H](N[*:1])C(=S)N[C@@H](Cc1ccccc1)C(=O)[*:2]; X2 = CC(C)C[C@H](NC(=S)[C@@H](CC(C)C)N[*:1])C(=O)[*:2]; X3 = CC(C)C[C@H](N[*:1])C(=S)N[C@H](CC(C)C)C(=O)[*:2]; X5 = CC(C)C[C@H](NC(=S)[C@H](CC(C)C)N[*:1])C(=O)[*:2]; X4 = CC(C)C[C@H](N[*:1])C(=S)N1CCC[C@@H]1C(=O)[*:2]; NMeL = CN[C@@H](CC(C)C)C(=O)O; dNMeL = CN[C@H](CC(C)C)C(=O)O
Think of 2 h as a floor: if half-life stands on it or above, it is fulfilled; beneath it, not fulfilled.

Solved cases below.
In: Can C[C@@H](O)[C@@H]1NC(=O)[C@H](CCCCN)NC(=O)[C@@H](Cc2c[nH]c3ccccc23)NC(=O)[C@H](Cc2ccccc2)NC(=O)[C@@H]2CCCN2C(=O)[C@H](Cc2ccccc2)NC1=S [13c] (cyclo(F[dW]K[X12]P)) be said to have half-life at or above 2 h?
Out: fulfilled

In: Given CC(C)C[C@@H]1NC(=O)[C@H](Cc2ccc(O)cc2)NC(=O)[C@H]2CCCN2C(=O)[C@H](CC(C)C)NC(=O)[C@H](CC(C)C)NC(=S)[C@@H](CC(C)C)NC1=O [10a] (cyclo(L[dP]YL[X2])) , state whether its half-life is at least 2 h.
Out: fulfilled

In: Please indicate if the recorded half-life for CC(C)C[C@@H]1NC(=O)[C@H](Cc2ccc(O)cc2)NC(=O)[C@H]2CCCN2C(=O)[C@H](CC(C)C)NC(=S)[C@H](CC(C)C)NC(=O)[C@@H](CC(C)C)NC1=O [10b] (cyclo(L[dL][X5][dP]Y)) meets or exceeds 2 h.
Out: not fulfilled

In: Tell me whether half-life is at least 2 h here: CC(C)C[C@@H]1NC(=O)[C@H](Cc2ccc(O)cc2)NC(=O)[C@H]2CCCN2C(=O)[C@H](CC(C)C)N(C)C(=O)[C@H](CC(C)C)NC(=O)[C@@H](CC(C)C)NC1=O [10i] (cyclo(L[NMeL][dP]YL[dL]))
Out: not fulfilled

In: Tell me whether half-life is at least 2 h here: CC(C)C[C@@H]1NC(=O)[C@@H](CC(C)C)NC(=S)[C@H](CC(C)C)NC(=O)[C@H](Cc2ccc(O)cc2)NC(=O)[C@H]2CCCN2C(=O)[C@H](CC(C)C)NC1=O [10f] (cyclo(LL[dP]Y[X3]))
Out: fulfilled

In: API: above_or_equal(metric=half-life, cutoff=2 h) for item CC(C)C[C@@H]1NC(=O)[C@H](Cc2ccc(O)cc2)NC(=O)[C@H]2CCCN2C(=S)[C@H](CC(C)C)NC(=O)[C@H](CC(C)C)NC(=O)[C@@H](CC(C)C)NC1=O [10c] (cyclo(L[dL]L[X4]Y))
Out: not fulfilled

In: Please indicate if the recorded half-life for CC(C)C[C@@H]1NC(=O)[C@@H](CC(C)C)N(C)C(=O)[C@H](CC(C)C)NC(=O)[C@H](Cc2ccc(O)cc2)NC(=O)[C@H]2CCCN2C(=O)[C@H](CC(C)C)NC1=O [10g] (cyclo(LL[dP]YL[dNMeL])) meets or exceeds 2 h.
Out: not fulfilled

In: Tell me whether half-life is at least 2 h here: CC(C)C[C@@H]1NC(=O)[C@@H](CC(C)C)NC(=O)[C@H](CC(C)C)N(C)C(=O)[C@H](Cc2ccc(O)cc2)NC(=O)[C@H]2CCCN2C(=O)[C@H](CC(C)C)NC1=O [10k] (cyclo(LL[dP]Y[NMeL][dL]))
Out: not fulfilled

---
In: Confirm if half-life reported for the compound CC(C)C[C@@H]1NC(=O)[C@H](Cc2ccc(O)cc2)NC(=O)[C@H]2CCCN2C(=O)[C@H](CC(C)C)NC(=O)[C@H](CC(C)C)N(C)C(=O)[C@@H](CC(C)C)NC1=O [10h] (cyclo(L[dL][NMeL]L[dP]Y)) is 2 h or above.
Out: not fulfilled

====

target: UniProt:P00791; assay: in vitro; conditions: simulated gastric fluid, pH 1.2
Sequence (P00791 60-385): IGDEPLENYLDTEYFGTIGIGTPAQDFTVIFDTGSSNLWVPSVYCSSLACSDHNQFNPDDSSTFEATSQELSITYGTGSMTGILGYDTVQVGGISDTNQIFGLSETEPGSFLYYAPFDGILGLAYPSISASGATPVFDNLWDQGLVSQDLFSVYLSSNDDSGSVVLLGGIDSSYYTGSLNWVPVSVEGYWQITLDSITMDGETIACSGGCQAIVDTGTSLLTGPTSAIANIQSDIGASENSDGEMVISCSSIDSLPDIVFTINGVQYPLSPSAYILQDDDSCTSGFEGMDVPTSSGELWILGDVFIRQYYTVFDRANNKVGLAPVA
Non-standard residues stand in square brackets, D forms with d. Residues, ends and D or L forms follow the SMILES beside them. NMeL = CN[C@@H](CC(C)C)C(=O)O; dNMeL = CN[C@H](CC(C)C)C(=O)O
The entries below come with measured remaining at 8 h values attached.
Output spec: scalar in %, unitless text.

In: Item CC(C)C[C@@H]1NC(=O)[C@@H](CC(C)C)N(C)C(=O)[C@H](CC(C)C)NC(=O)[C@H](Cc2ccc(O)cc2)NC(=O)[C@H]2CCCN2C(=O)[C@H](CC(C)C)NC1=O [10g] (cyclo(LL[dP]YL[dNMeL])) : provide remaining at 8 h
Out: 0

Then this compound:
In: Identify measured remaining at 8 h associated with CC(C)C[C@@H]1NC(=O)[C@@H](CC(C)C)NC(=O)[C@H](CC(C)C)N(C)C(=O)[C@H](Cc2ccc(O)cc2)NC(=O)[C@H]2CCCN2C(=O)[C@H](CC(C)C)NC1=O [10k] (cyclo(LL[dP]Y[NMeL][dL]))
Out: 11

====

assay: in vivo; details: male, Wistar, rat, iv
Starred links: 1 amine or outer side, 2 acyl side, 3 side chain; linkers in the order of their positions; H or OH if unused. Non-standard residues stand in square brackets, D forms with d. Residues, ends and D or L forms follow the SMILES beside them. X1 = CC(C)C[C@H](NC(=S)[C@H](Cc1ccc(O)cc1)N[*:1])C(=O)[*:2]; X2 = CC(C)C[C@H](NC(=S)[C@@H](CC(C)C)N[*:1])C(=O)[*:2]; X3 = CC(C)C[C@H](N[*:1])C(=S)N[C@H](CC(C)C)C(=O)[*:2]; NMeL = CN[C@@H](CC(C)C)C(=O)O
# label = rule met if Cmax >= 1 µg/mL else rule not met

Use the examples below as a reference point.
In: Say whether CC(C)C[C@@H]1NC(=O)[C@H](Cc2ccc(O)cc2)NC(=O)[C@H]2CCCN2C(=O)[C@H](CC(C)C)NC(=O)[C@H](CC(C)C)NC(=S)[C@@H](CC(C)C)NC1=O [10a] (cyclo(L[dP]YL[X2])) shows Cmax of 1 µg/mL or more.
Out: rule not met

In: Textbook exercise: given the entry CC(C)C[C@@H]1NC(=O)[C@@H](CC(C)C)NC(=O)[C@H](CC(C)C)NC(=S)[C@H](Cc2ccc(O)cc2)NC(=O)[C@H]2CCCN2C(=O)[C@H](CC(C)C)NC1=O [10e] (cyclo(LL[dP][X1][dL])) , state whether its Cmax is greater than or equal to 1 µg/mL.
Out: rule met

In: Could you tell me if the measured Cmax of CC(C)C[C@@H]1NC(=O)[C@@H](CC(C)C)NC(=S)[C@H](CC(C)C)NC(=O)[C@H](Cc2ccc(O)cc2)NC(=O)[C@H]2CCCN2C(=O)[C@H](CC(C)C)NC1=O [10f] (cyclo(LL[dP]Y[X3])) reaches 1 µg/mL or more?
Out: rule not met

Continuing:
In: Textbook exercise: given the entry CC(C)C[C@@H]1NC(=O)[C@H](Cc2ccc(O)cc2)NC(=O)[C@H]2CCCN2C(=O)[C@H](CC(C)C)NC(=O)[C@H](CC(C)C)NC(=O)[C@@H](CC(C)C)NC1=O [compound 10, cyclo(-D-Leu^1-Leu-Leu-D-Pro-Tyr-Leu^6-)] (cyclo(LL[dP]YL[dL])) , state whether its Cmax is greater than or equal to 1 µg/mL.
Out: rule met

In: hey, is Cmax for this one >= 1 µg/mL? CC(C)C[C@@H]1NC(=O)[C@H](Cc2ccc(O)cc2)NC(=O)[C@H]2CCCN2C(=O)[C@H](CC(C)C)NC(=O)[C@H](CC(C)C)N(C)C(=O)[C@@H](CC(C)C)NC1=O [10h] (cyclo(L[dL][NMeL]L[dP]Y))
Out: rule not met

In: Entry CC(C)C[C@@H]1NC(=O)[C@@H](CC(C)C)NC(=O)[C@H](CC(C)C)N(C)C(=O)[C@H](Cc2ccc(O)cc2)NC(=O)[C@H]2CCCN2C(=O)[C@H](CC(C)C)NC1=O [10k] (cyclo(LL[dP]Y[NMeL][dL])) : is its Cmax no less than 1 µg/mL?
Out: rule met

====

test: in vitro; details: pig, simulated intestinal fluid
Starred links: 1 amine or outer side, 2 acyl side, 3 side chain; linkers in the order of their positions; H or OH if unused. Non-standard residues stand in square brackets, D forms with d. Residues, ends and D or L forms follow the SMILES beside them. X4 = CC(C)C[C@H](N[*:1])C(=S)N1CCC[C@@H]1C(=O)[*:2]
quantity measured: remaining at 8 h (%)
The figure you give is taken to be in %; do not add the unit.

In: Output remaining at 8 h of CC(C)C[C@@H]1NC(=O)[C@H](Cc2ccc(O)cc2)NC(=O)[C@H]2CCCN2C(=S)[C@H](CC(C)C)NC(=O)[C@H](CC(C)C)NC(=O)[C@@H](CC(C)C)NC1=O [10c] (cyclo(L[dL]L[X4]Y))
Out: 26.2

In: Answer with the recorded remaining at 8 h of CC(C)C[C@@H]1NC(=O)[C@H](Cc2ccc(O)cc2)NC(=O)[C@H]2CCCN2C(=O)[C@H](CC(C)C)NC(=O)[C@H](CC(C)C)NC(=O)[C@@H](CC(C)C)NC1=O [compound 10, cyclo(-D-Leu^1-Leu-Leu-D-Pro-Tyr-Leu^6-)] (cyclo(LL[dP]YL[dL])) only.
Out: 7.3
